These data points were gathered from PubChem BioAssay AID2553.

subject-of-test: Short transient receptor potential channel 6 (Mus musculus)
assay-comment: mouse TRPC6 channel inhibitors, primary screen, cell-based, HEK293, membrane potential dye (AID 2553)
assay-conditions: ACh-evoked depolarization, at 10 µM
In all, about 310,000 compounds went through this assay and about 3,300 (1.1%) were called active.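 The calls were made as follows: active = B-score under library mean minus 3 SD, initial fluorescence not abnormally high, positive integrated signal ratio; inactive = the rest.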 The sample holds actives, similar compounds and a random draw of the others, so the mix is not that of the screen.
Classes used: true = active, false = inactive

INSERT INTO measurements (compound, label) VALUES
  ('COC(=O)c1cccc(N(C(=O)c2ccco2)C(C(=O)NC2CCCC2)c2ccco2)c1 (centres undefined)', 'false'),
  ('O=C(C1CCN(S(=O)(=O)Cc2ccccc2)CC1)N1CCCc2ccccc21', 'true'),
  ('Cc1ccc2c(c1)N(CC(=O)N1CCC(O)CC1)C(=O)CO2', 'false'),
  ('NS(=O)(=O)c1ccc(CCNC(=O)CCCn2c(SCC(=O)N3CCCC3)nc3ccsc3c2=O)cc1', 'false'),
  ('O=C(OCCN1C(=O)c2ccccc2C1=O)Oc1ccccc1', 'false'),
  ('Cc1cc(OCc2ccc(C(=O)Nc3ccc(C(=O)O)cc3)o2)ccc1Cl', 'false'),
  ('O=C(O)c1ccc(NC(=O)c2ccc(COc3ccc(Cl)cc3)o2)cc1', 'true'),
  ('CC(=O)c1ccc(N2CCN(C(=O)C3CCN(S(=O)(=O)c4ccc5c(c4)CC(C)N5C(=O)C4CC4)CC3)CC2)cc1 (centres undefined)', 'false'),
  ('CCOc1ccccc1-c1cc(C(=O)N/N=C(\C)c2cccnc2)c2ccccc2n1', 'false');
